Provide the recorded Metabolic rate (Mean ± SD, % of control) for the entries that follow.
tested on: ivacaftor metabolism in rat liver microsomes (RLM); experiment: Screening of 79 drugs (100 μM) for inhibition of ivacaftor metabolism in RLM incubation; type: in vitro ADME; details: each drug 100 μM, 0.3 mg/mL RLM

Example results:
molecule="CCOC(=O)C1=C(C)NC(C)=C(C(=O)OCC)C1c1ccccc1/C=C/C(=O)OC(C)(C)C [Lacidipine]" metric_name="Metabolic rate (Mean ± SD, % of control)" recorded_value="14.13 ± 1.07 % of control"
molecule="CC(C)N(CCCCOCC(=O)NS(C)(=O)=O)c1cnc(-c2ccccc2)c(-c2ccccc2)n1 [Selexipag]" metric_name="Metabolic rate (Mean ± SD, % of control)" recorded_value="28.78 ± 2.21 % of control"
molecule="COc1ccc(-n2nc(C(N)=O)c3c2C(=O)N(c2ccc(N4CCCCC4=O)cc2)CC3)cc1 [Apixaban]" metric_name="Metabolic rate (Mean ± SD, % of control)" recorded_value="83.91 ± 3.91 % of control"
molecule="COc1ccc2cc3[n+](cc2c1OC)CCc1cc2c(cc1-3)OCO2 [Berberine]" metric_name="Metabolic rate (Mean ± SD, % of control)" recorded_value="109.72 ± 0.72 % of control"

For every record below, what is its Metabolic rate (Mean ± SD, % of control)?
1. COc1ccc2cc1Oc1ccc(cc1)C[C@H]1c3cc(c(OC)cc3CCN1C)Oc1c(OC)c(OC)cc3c1[C@H](C2)N(C)CC3 [Tetrandrine]
2. C[N+](C)(C)CC(=O)O [Betaine]
3. COc1cc2cc(Oc3ccc4ccc(=O)oc4c3)c(=O)oc2cc1O [Daphnoretin]
4. O=c1c(-c2ccc(O)cc2)coc2cc(O)cc(O)c12 [Genistein]

1. 71.96 ± 16.27 % of control
2. 100.10 ± 4.97 % of control
3. 69.60 ± 0.85 % of control
4. 50.39 ± 12.01 % of control

For every record below, what is its Metabolic rate (Mean ± SD, % of control)?
1. COc1ccc([C@@H]2Sc3ccccc3N(CCN(C)C)C(=O)[C@@H]2OC(C)=O)cc1 [Dilthiazem]
2. Oc1ccc(/C=C/c2cc(O)cc(O)c2)cc1 [Resveratrol]
3. CSCCNc1nc(SCCC(F)(F)F)nc2c1ncn2[C@@H]1O[C@H](COP(=O)(O)OP(=O)(O)C(Cl)(Cl)P(=O)(O)O)[C@@H](O)[C@H]1O [cangrelor]
4. COc1cc(-c2oc3cc(O)cc(O)c3c(=O)c2O)ccc1O [Isorhamnetin]
5. CC1(C)O[C@H]2CC(=O)OC[C@]23[C@H]2CC[C@@]4(C)[C@H](c5ccoc5)OC(=O)[C@H]5O[C@]54[C@]2(C)C(=O)C[C@@H]13 [Limonin]

1: 26.04 ± 1.00 % of control; 2: 18.69 ± 0.46 % of control; 3: 105.13 ± 0.21 % of control; 4: 65.68 ± 3.49 % of control; 5: 19.90 ± 0.36 % of control

For every record below, what is its Metabolic rate (Mean ± SD, % of control)?
1. CC(C)=CCC/C(C)=C/C=C/C(C)=C/C=C/C(C)=C/C=C/C=C(C)/C=C/C=C(C)/C=C/C=C(\C)CCC=C(C)C [Lycopene]
2. CC(=O)CC(c1ccccc1)c1c(O)c2ccccc2oc1=O (centres unmarked) [Warfarin]
3. CC(C)n1c(=O)cc(N[C@@H](C)c2ccccc2)[nH]c1=O [mavacamten]
4. O=c1cc(-c2ccc(O)c(O)c2)oc2cc(O)cc(O)c12 [Luteolin]

7.16 ± 0.77 % of control
95.32 ± 3.41 % of control
94.17 ± 0.21 % of control
95.78 ± 7.92 % of control

---

Tested on: ivacaftor metabolism in rat liver microsomes (RLM)
Experiment: Screening of 79 drugs (100 μM) for inhibition of ivacaftor metabolism in RLM incubation
Assay type: in vitro ADME
Conditions: each drug 100 μM, 0.3 mg/mL RLM
Method: The supernatants were centrifuged at 100,000 × g for 1 h, and the pellets were resuspended with cold […] PBS. Protein concentrations were determined by Bradford Protein Assay Kit (Thermo Scientific, Waltham, MA, United States). This system was made up of 200 μL of incubation solution consisting of 0.3 mg/mL RLM or 0.4 mg/mL HLM, 1.0 mM NADPH, pH 7.4 PBS and ivacaftor. […] After centrifugation, 100 μL of the supernatant was quantified using UPLC-MS/MS. […]
Provide the recorded Metabolic rate (Mean ± SD, % of control) for the entries that follow.

Example results:
compound=O=c1c(O)c(-c2ccc(O)c(O)c2)oc2cc(O)ccc12 measured_on="ivacaftor metabolism in rat liver microsomes (RLM)" recorded_value="44.37 ± 1.28 % of control"
compound=C[C@@H]1O[C@@H](O[C@H]2[C@H](Oc3cc(O)c4c(c3)O[C@H](c3ccc(O)cc3)CC4=O)O[C@H](CO)[C@@H](O)[C@@H]2O)[C@H](O)[C@H](O)[C@H]1O measured_on="ivacaftor metabolism in rat liver microsomes (RLM)" recorded_value="100.87 ± 17.42 % of control"
compound="CCC1=C(C)CN(C(=O)NCCc2ccc(S(=O)(=O)NC(=O)N[C@H]3CC[C@H](C)CC3)cc2)C1=O [Glimepiride]" measured_on="ivacaftor metabolism in rat liver microsomes (RLM)" recorded_value="36.97 ± 1.02 % of control"
compound=CN(C)[C@@H](CCOc1cccc2ccccc12)c1ccccc1 measured_on="ivacaftor metabolism in rat liver microsomes (RLM)" recorded_value="19.76 ± 0.64 % of control"
compound=O=C1CCC[C@@H]2[C@H]3CCCN4CCC[C@H](CN12)[C@@H]34 measured_on="ivacaftor metabolism in rat liver microsomes (RLM)" recorded_value="109.11 ± 5.90 % of control"
compound=CCCCc1nc(Cl)c(CO)n1Cc1ccc(-c2ccccc2-c2nn[nH]n2)cc1 measured_on="ivacaftor metabolism in rat liver microsomes (RLM)" recorded_value="35.88 ± 1.19 % of control"
compound=O=C(NC[C@H]1CN(c2ccc(N3CCOCC3=O)cc2)C(=O)O1)c1ccc(Cl)s1 measured_on="ivacaftor metabolism in rat liver microsomes (RLM)" recorded_value="85.62 ± 0.92 % of control"

Please examine the following record next.
State the recorded Metabolic rate (Mean ± SD, % of control) for this entry: CCOC(=O)C1=C(C)NC(C)=C(C(=O)OC)C1c1cccc([N+](=O)[O-])c1 (centres unmarked)
27.00 ± 0.21 % of control

---

target: ivacaftor metabolism in rat liver microsomes (RLM); experiment: IC50 and inhibition mechanism (Lineweaver-Burk, Ki, αKi) on ivacaftor metabolism in RLM
Provide the recorded Ki for the entries that follow.
Give bare numbers, in µM.

compound="COCCOC(=O)C1=C(C)NC(C)=C(C(=O)OC(C)C)C1c1cccc([N+](=O)[O-])c1 (centres unmarked)" metric_name=Ki recorded_value=3.26

Please examine the following record next.
State the recorded Ki for this entry: COC(=O)C1=C(C)NC(C)=C(C(=O)OCC(C)C)C1c1ccccc1[N+](=O)[O-] (centres unmarked)
3.35

---

Provide the recorded Metabolic rate (Mean ± SD, % of control) for the entries that follow.
tested on: ivacaftor metabolism in rat liver microsomes (RLM); assay: Screening of 79 drugs (100 μM) for inhibition of ivacaftor metabolism in RLM incubation; type: in vitro ADME; details: each drug 100 μM, 0.3 mg/mL RLM

compound=COc1ccc2cc1Oc1ccc(cc1)C[C@H]1c3cc(c(OC)cc3CCN1C)Oc1c(O)c(OC)cc3c1[C@H](C2)N(C)CC3 recorded_value="29.41 ± 4.61 % of control"

For every record below, what is its Metabolic rate (Mean ± SD, % of control)?
1. CN1C(C(=O)Nc2ccccn2)=C(O)c2sc(Cl)cc2S1(=O)=O
2. CO[C@H]1O[C@@H]2O[C@@]3(C)CC[C@H]4[C@H](C)CC[C@@H]([C@H]1C)[C@@]24OO3
3. Oc1cc(O)c2c(c1)O[C@H](c1ccc(O)c(O)c1)[C@H](O)C2 [Epicatechin]

["79.39 ± 3.06 % of control", "41.88 ± 3.81 % of control", "100.31 ± 2.66 % of control"]

---

assay: Pharmacokinetics of ivacaftor and M1 in Sprague-Dawley rats with or without nisoldipine or nimodipine; format: in vivo; conditions: male, rat, plasma, po, ivacaftor 10 mg/kg gavage, nisoldipine 1 mg/kg or nimodipine 10 mg/kg 30 min before, n = 4
metric_name: AUC(0-t) (ng·h/mL)
One number for each entry, in ng·h/mL.

State the recorded AUC(0-t) for this entry: CC(C)(C)c1cc(C(C)(C)C)c(NC(=O)c2c[nH]c3ccccc3c2=O)cc1O
8410

Data origin, for the record: paper PMC11424460
